Hey, just so you know, these numbers are from patent EP0534511A1.

- experimental.system: HIV protease (Human immunodeficiency virus type 1 group M subtype B, UniProt P04585)
pIC50: −log10 of the molar value.
quantity.measured: pIC50

(I) O=C(N[C@@H](CC1CCCCC1)[C@@H](O)C[C@@H](Cc1ccccc1)C(=O)N[C@H]1c2ccccc2C[C@H]1O)O[C@H]1CCOC1
(II) CC(C)[C@H](C[C@H](O)[C@H](CC1CCCCC1)NC(=O)O[C@H]1CCOC1)C(=O)N[C@H]1c2ccccc2C[C@H]1O
query: Select the item whose pIC50 value is smaller, choosing between I and II . Output the label that corresponds to your choice.
result: II
